# System: Saccharomyces cerevisiae
# assay name: Antifungal activity against Saccharomyces cerevisiae ATCC 9763 after 24 hrs by broth microdilution method
# Assay type: functional
# run parameters: ATCC 9763, 24 h
Consider the following compounds; for each one, report its MIC.
One number for each entry, in µg/mL.

List MIC for every entry below, keeping the order given.
1. CC(C)c1csc(-c2nnc3n2N=C(c2ccc(Br)cc2)CS3)n1
2. CC(C)c1csc(-c2nnc3n2NC(c2ccc(F)cc2F)S3)n1 (centres undefined)
3. CC(C)c1csc(-c2nn(CN3CCN(C)CC3)c(=S)n2/N=C/c2ccccc2Cl)n1

### Response
[62.5, 62.5, 125]

Hi, could you look up MIC for each item in my list?
1. COc1ccc(/C=N/n2c(-c3nc(C(C)C)cs3)nn(CN3CCOCC3)c2=S)cc1
2. CC(C)c1csc(-c2nnc3n2NC(c2ccc(O)cc2)S3)n1 (centres undefined)
3. CC(C)c1csc(-c2nnc3n2N=C(c2ccc([N+](=O)[O-])cc2)CS3)n1
4. COc1ccc(C(=O)Nn2c(-c3nc(C(C)C)cs3)n[nH]c2=S)cc1
5. COc1ccc(C2=Nn3c(nnc3-c3nc(C(C)C)cs3)SC2)cc1
6. CC(C)c1csc(-c2nn(CN3CCOCC3)c(=S)o2)n1

### Response
1: 62.5; 2: 62.5; 3: 16; 4: 4; 5: 16; 6: 31.2

Cited source: ChEMBL document CHEMBL1275278
